- tgt: double-stranded 17-mer DNA fragment
- experimental details: ThO (Thiazole Orange) DNA displacement assay
- Type: binding
- conditions: read-out: ThO-DNA binding IC50
quantity name: IC50

Query block: What does the record list as IC50 for Nc1c(C(=O)OCC(=O)Nc2cccc([N+](=O)[O-])c2)[nH]c(=O)[nH]c1=O [MLS002171489] ?
Result block: > 57 µM

Query block: What does the record list as IC50 for N#Cc1c(NC(=O)COC(=O)c2ccc(O)cc2O)sc2c1CCC2 [MLS001159876] ?
Result block: 11.5 µM

Query block: What does the record list as IC50 for O=C1CCCC(O)=C1N=Nc1cccc(C(=O)O)c1 [MLS000759952] ?
Result block: > 57 µM

Query block: What does the record list as IC50 for Cc1ccccc1N=C1NC(=O)/C(=C/c2cccn2-c2cccc(C(=O)O)c2)S1 [MLS000704580] ?
Result block: > 57 µM

Query block: What does the record list as IC50 for CC(=O)Nc1ccc(S(=O)(=O)NCCC(=O)OCC(=O)N2CCN(C(=O)c3ccco3)CC2)cc1 [MLS001078987] ?
Result block: > 57 µM

More entries:
Query block: What does the record list as IC50 for CC1=C(C(=O)OC(C)C)C(c2ccc(Cl)cc2)n2c(s/c(=C\c3ccc(OCC(=O)O)cc3)c2=O)=N1 (centres unmarked) [MLS001178474] ?
Result block: 10.2 µM

Query block: What does the record list as IC50 for Cc1ccc(S(=O)(=O)Nc2csc(C)c2C(=O)O)cc1 [MLS000850015] ?
Result block: > 57 µM

Query block: What does the record list as IC50 for CCOC(=O)C1CCN(/C=C2/C(=O)NC(=O)N(Cc3ccco3)C2=O)CC1 [MLS000113273] ?
Result block: > 57 µM

====

- tgt: double-stranded 17-mer DNA fragment
- experimental details: ThO (Thiazole Orange) DNA displacement assay;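 note: miniaturized displacement of the intercalating dye from unlabeled duplex DNA, used to flag nonspecific DNA binders, chiefly intercalators, groove binders may be missed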
- Type: binding
- conditions: read-out: ThO-DNA binding IC50
Listed below: pIC50 values for each entry.
Notebook: values listed as pIC50 are -log10 of the concentration (mol/L).

These solved cases illustrate the format of a correct answer.
Query block: What does the record list as pIC50 for COc1cc(O)c2c(c1)oc(=O)c1c3cc(O)c(O)cc3oc21 [NCGC00163667] ?
Result block: 5.00

Query block: What does the record list as pIC50 for Cn1cnnc1SCC(=O)Nc1ncc([N+](=O)[O-])s1 [MLS002252055] ?
Result block: 4.39

Query block: What does the record list as pIC50 for O=C(O)c1ccc(-c2ccc(/C=c3/sc4nc5ccccc5n4c3=O)o2)cc1Cl [MLS001196440] ?
Result block: 4.39

Query block: What does the record list as pIC50 for CC(=O)c1ccc(NC(=O)c2ccc3nc(-c4ccco4)c(-c4ccco4)nc3c2)cc1 [MLS000534769] ?
Result block: 5.05

Please find the next molecule below.
Query block: What does the record list as pIC50 for O=C(O)c1cccc(-c2ccc(/C=c3/sc4nc5ccccc5n4c3=O)o2)c1 [MLS000777053] ?
Result block: 5.20

====

- tgt: APE1 (Homo sapiens, UniProt P27695)
- Construct: made in house
- Sequence (P27695 whole entry): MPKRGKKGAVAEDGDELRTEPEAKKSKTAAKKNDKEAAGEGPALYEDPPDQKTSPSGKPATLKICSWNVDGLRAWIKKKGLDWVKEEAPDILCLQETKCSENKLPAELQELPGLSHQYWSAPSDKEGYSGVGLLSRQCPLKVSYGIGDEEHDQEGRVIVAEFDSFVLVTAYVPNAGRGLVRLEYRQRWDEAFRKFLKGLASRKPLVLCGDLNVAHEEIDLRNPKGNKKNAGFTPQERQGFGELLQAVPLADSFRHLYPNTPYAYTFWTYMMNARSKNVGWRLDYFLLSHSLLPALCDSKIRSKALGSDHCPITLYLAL
- experimental details: Fluorogenic kinetic qHTS APE1 incision assay (primary screen and retest of cherrypicked samples);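 note: purified APE1 cleaving a fluorophore/dark-quencher labelled 17-mer duplex DNA bearing a tetrahydrofuran AP site, fluorescence rise followed kinetically over the first 2 min, inhibition normalized to controls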
- Assay type: biochemical
- conditions: initial quantitative high-throughput screen; read-out: APE1 qHTS IC50
quantity name: log10(IC50) (log10 of the value in µM)
Friendly reminder: values = log10 of IC50, unit µM.

These solved cases illustrate the format of a correct answer.
Query block: What does the record list as log10(IC50) for NC(=O)Cn1c(=O)n(Cc2ccco2)c(=O)c2c3c(sc21)CCCCC3 ?
Result block: 1.50

Query block: What does the record list as log10(IC50) for COc1ccc(NC(=O)COC(=O)c2cc3c(s2)CCC3)cc1 ?
Result block: 0.72

Query block: What does the record list as log10(IC50) for COc1ccc2nc3cc(Cl)ccc3c(Nc3cc(CN4CCCC4)c(O)c(CN4CCCC4)c3)c2n1 [MLS001306480, pyronaridine, reference compound] ?
Result block: 1.18

Query block: What does the record list as log10(IC50) for Cc1ccc(NC(=O)CN2C(=O)S/C(=C\c3cccn3-c3cccc(C(=O)O)c3)C2=O)c(C)c1 ?
Result block: 0.95

Query block: What does the record list as log10(IC50) for COc1ccc(S(=O)(=O)N2CCOCC2)cc1NC(=O)c1cccc(-n2cccc2)c1 ?
Result block: 0.58

Query block: What does the record list as log10(IC50) for COc1ccc(C(=O)Nc2ccnn2C2CCN(Cc3ccc4nonc4c3)CC2)cc1 ?
Result block: 0.72

More entries:
Query block: What does the record list as log10(IC50) for CC(C)(C)OC(=O)C[C@@H]1C/C=C\C[C@@H](CC(=O)NCCO)C(=O)N[C@H](Cc2c[nH]c3ccccc23)COC1=O ?
Result block: 1.18

FYI, the data here is from paper PMC3479139.
